Biological target: T1, Bcl-w, Q92843
T1 chain: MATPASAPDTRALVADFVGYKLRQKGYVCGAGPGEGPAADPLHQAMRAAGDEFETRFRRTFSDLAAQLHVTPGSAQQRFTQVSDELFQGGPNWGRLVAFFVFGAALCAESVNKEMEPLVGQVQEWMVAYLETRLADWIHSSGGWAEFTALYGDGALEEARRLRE
Experiment: peptide SPOT array, c-Myc-tagged receptor at 1 uM or 100 nM, anti-c-Myc-Cy3
Mark condition met for SPOT signal as a fraction of Bim BH3's signal on the same receptor and array under 0.07, condition not met if at or over.

1) DISALTASNLLKKYAEKYSGILEGPV [FIGN]: condition not met
2) GFANHDVVEVLRNAGQVVHLTLVRRK [INADL]: condition not met

# check: SPOT signal as a fraction of Bim BH3's signal on the same receptor and array < 0.07 for FERVEQMCIQIKEVGDRVNYIKRSLQ [TRPM7]
condition not met

Determine if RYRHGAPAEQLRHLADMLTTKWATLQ [PLEKHH1] shows SPOT signal as a fraction of Bim BH3's signal on the same receptor and array strictly lower than 0.07.
condition not met

For this binder, is SPOT signal as a fraction of Bim BH3's signal on the same receptor and array lower than 0.07? FVGCEFLHHLLREWGEELQAVLRSSQ [GEMIN4]
condition met

Determine if TIHFNQRGTRLASSGDDLRVIVWDWV [DCAF8L1] shows SPOT signal as a fraction of Bim BH3's signal on the same receptor and array strictly lower than 0.07.
condition met

Dear colleague, could you confirm whether SPOT signal as a fraction of Bim BH3's signal on the same receptor and array of MRPEIWIAQEDRRIGDEFNAYYARRV [BCL2L11] falls below 0.07? Thanks.
condition met

Say whether its SPOT signal as a fraction of Bim BH3's signal on the same receptor and array is strictly beneath 0.07. Entry: LRGSGAWGLLLRRVGDDVLVHLLARC [TERT]
condition not met
